- Study System: T1, E6AP AZUL 24-87 (Homo sapiens, UniProt Q05086)
- T1 chain: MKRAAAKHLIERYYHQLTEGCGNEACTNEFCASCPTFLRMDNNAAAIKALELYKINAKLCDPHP
- Assay Details: fluorescence (dual probe)
Endpoint Label: Kd (nM)

I: Rpn10 RAZUL S358C-acrylodan 305-377 (protein, S358C labeled with acrylodan) SADIDASSAMDTSEPAKEEDDYDVMQDPEFLQSVLENLPGVDPNNEAIRNAMGSLASQATKDGKKDKKEEDKK
II: Rpn10 RAZUL S337C-Atto610 305-377 (protein, S337C labeled with Atto610) SADIDASSAMDTSEPAKEEDDYDVMQDPEFLQSVLENLPGVDPNNEAIRNAMGSLASQATKDGKKDKKEEDKK
INPUT: Which is greater in Kd, the first item I or the second item II ? Your answer should be the label of the entry you select.
OUTPUT: II
(II: 16.3 nM, I: 2.97 nM)
